Tested on: 201T
measurement-description: relative viability (nuclei count vs DMSO), 5 days (fraction); higher = more cells survive
run-conditions: first compound 1 µM
quantity-name: relative viability
Answer with the value's number alone.

Per the record, O=c1cc(N2CCOCC2)oc2c(-c3cccc4c3sc3ccccc34)cccc12 + O=C(c1cc(Cc2n[nH]c(=O)c3ccccc23)ccc1F)N1CCN(C(=O)C2CC2)CC1 [Olaparib] (partner 8 µM) has relative viability of 0.866

Per the record, CCN(CC)CCCCNc1ncc2cc(-c3cc(OC)cc(OC)c3)c(NC(=O)NC(C)(C)C)nc2n1 + COc1cccc2cc(-c3nc([C@H]4CC[C@H](C(=O)O)CC4)n4ncnc(N)c34)[nH]c12 [OSI-027] (partner 0.5 µM) has relative viability of 0.607

Per the record, O=c1cc(N2CCOCC2)oc2c(-c3cccc4c3sc3ccccc34)cccc12 + COc1cccc2cc(-c3nc([C@H]4CC[C@H](C(=O)O)CC4)n4ncnc(N)c34)[nH]c12 [OSI-027] (partner 0.5 µM) has relative viability of 0.645

Per the record, CCN(CC)CCCCNc1ncc2cc(-c3cc(OC)cc(OC)c3)c(NC(=O)NC(C)(C)C)nc2n1 + CC(=O)c1c(C)c2cnc(Nc3ccc(N4CCNCC4)cn3)nc2n(C2CCCC2)c1=O [Palbociclib] (partner 0.5 µM) has relative viability of 0.372

###

System: A-427
measurement-description: relative viability (nuclei count vs DMSO), 5 days (fraction); higher = more cells survive
run-conditions: first compound 0.8 µM
Give measured relative viability for each item. Keep answers brief.
Answer with the value's number alone.

Per the record, COc1nc(C)cnc1NS(=O)(=O)c1cccnc1-c1ccc(-c2nnco2)cc1 [Zibotentan] + COc1cccc2cc(-c3nc([C@H]4CC[C@H](C(=O)O)CC4)n4ncnc(N)c34)[nH]c12 [OSI-027] (partner 0.5 µM) has relative viability of 0.501

Per the record, COc1nc(C)cnc1NS(=O)(=O)c1cccnc1-c1ccc(-c2nnco2)cc1 [Zibotentan] + C[C@@H](Oc1cc(-c2cnn(C3CCNCC3)c2)cnc1N)c1c(Cl)ccc(F)c1Cl [Crizotinib] (partner 1 µM) has relative viability of 0.904

Per the record, COc1nc(C)cnc1NS(=O)(=O)c1cccnc1-c1ccc(-c2nnco2)cc1 [Zibotentan] + CCNC(=O)c1noc(-c2cc(C(C)C)c(O)cc2O)c1-c1ccc(CN2CCOCC2)cc1 [Luminespib] (partner 0.01 µM) has relative viability of 0.998

Per the record, O=c1cc(-c2cccc3c2Sc2ccccc2S3)oc(N2CCOCC2)c1 + N=C(N)NC(=N)NCCc1ccccc1 [Phenformin] (partner 250 µM) has relative viability of 0.376

Per the record, O=c1cc(-c2cccc3c2Sc2ccccc2S3)oc(N2CCOCC2)c1 + C[C@]1(O)C[C@@H](c2nc(-c3ccc4ccc(-c5ccccc5)nc4c3)c3c(N)nccn32)C1 [Linsitinib] (partner 1 µM) has relative viability of 1.19

###

Give measured relative viability for each item. Keep answers brief.
System: NCI-H2087
measurement-description: relative viability (nuclei count vs DMSO), 5 days (fraction); higher = more cells survive
run-conditions: first compound 0.1 µM
Answer with the value's number alone.

Per the record, CCN(CC)CCCCNc1ncc2cc(-c3cc(OC)cc(OC)c3)c(NC(=O)NC(C)(C)C)nc2n1 + CC(=O)c1c(C)c2cnc(Nc3ccc(N4CCNCC4)cn3)nc2n(C2CCCC2)c1=O [Palbociclib] (partner 0.5 µM) has relative viability of 0.206

Per the record, O=c1cc(N2CCOCC2)oc2c(-c3cccc4c3sc3ccccc34)cccc12 + N=C(N)NC(=N)NCCc1ccccc1 [Phenformin] (partner 250 µM) has relative viability of 0.45

Per the record, CCN(CC)CCCCNc1ncc2cc(-c3cc(OC)cc(OC)c3)c(NC(=O)NC(C)(C)C)nc2n1 + O=C(CCCCCCC(=O)Nc1ccccc1)NO [Vorinostat] (partner 1 µM) has relative viability of 0.893

Per the record, O=c1cc(N2CCOCC2)oc2c(-c3cccc4c3sc3ccccc34)cccc12 + CC(=O)c1c(C)c2cnc(Nc3ccc(N4CCNCC4)cn3)nc2n(C2CCCC2)c1=O [Palbociclib] (partner 0.5 µM) has relative viability of 0.221

Per the record, CCN(CC)CCCCNc1ncc2cc(-c3cc(OC)cc(OC)c3)c(NC(=O)NC(C)(C)C)nc2n1 + CC(C)C[C@H](NC(=O)[C@H](Cc1ccccc1)NC(=O)c1cnccn1)B(O)O [Bortezomib] (partner 0.002 µM) has relative viability of 1.08

Per the record, O=c1cc(N2CCOCC2)oc2c(-c3cccc4c3sc3ccccc34)cccc12 + CC(=O)Nc1cccc(-n2c(=O)n(C3CC3)c(=O)c3c(Nc4ccc(I)cc4F)n(C)c(=O)c(C)c32)c1 [Trametinib] (partner 0.02 µM) has relative viability of 0.231

Per the record, CCN(CC)CCCCNc1ncc2cc(-c3cc(OC)cc(OC)c3)c(NC(=O)NC(C)(C)C)nc2n1 + COc1cc2c(Oc3ccc(NC(=O)C4(C(=O)Nc5ccc(F)cc5)CC4)cc3F)ccnc2cc1OCCCN1CCOCC1 [Foretinib] (partner 0.25 µM) has relative viability of 1.45

Per the record, CCN(CC)CCCCNc1ncc2cc(-c3cc(OC)cc(OC)c3)c(NC(=O)NC(C)(C)C)nc2n1 + C[C@@H](Oc1cc(-c2cnn(C3CCNCC3)c2)cnc1N)c1c(Cl)ccc(F)c1Cl [Crizotinib] (partner 1 µM) has relative viability of 1.01

Per the record, O=c1cc(N2CCOCC2)oc2c(-c3cccc4c3sc3ccccc34)cccc12 + O=C(c1cc(Cc2n[nH]c(=O)c3ccccc23)ccc1F)N1CCN(C(=O)C2CC2)CC1 [Olaparib] (partner 8 µM) has relative viability of 0.672

Per the record, O=c1cc(N2CCOCC2)oc2c(-c3cccc4c3sc3ccccc34)cccc12 + C[C@@H](Oc1cc(-c2cnn(C3CCNCC3)c2)cnc1N)c1c(Cl)ccc(F)c1Cl [Crizotinib] (partner 1 µM) has relative viability of 0.84

Per the record, CCN(CC)CCCCNc1ncc2cc(-c3cc(OC)cc(OC)c3)c(NC(=O)NC(C)(C)C)nc2n1 + N=C(N)NC(=N)NCCc1ccccc1 [Phenformin] (partner 250 µM) has relative viability of 0.536

Per the record, O=c1cc(N2CCOCC2)oc2c(-c3cccc4c3sc3ccccc34)cccc12 + NC(=O)Nc1cc(-c2cccc(F)c2)sc1C(=O)N[C@H]1CCCNC1 [AZD7762] (partner 0.2 µM) has relative viability of 1.44

Per the record, O=c1cc(N2CCOCC2)oc2c(-c3cccc4c3sc3ccccc34)cccc12 + C[C@]1(O)C[C@@H](c2nc(-c3ccc4ccc(-c5ccccc5)nc4c3)c3c(N)nccn32)C1 [Linsitinib] (partner 1 µM) has relative viability of 0.899

###

Give measured relative viability for each item. Keep answers brief.
Tested on: BEN
measurement-description: relative viability (nuclei count vs DMSO), 5 days (fraction); higher = more cells survive
run-conditions: first compound 8 µM
Answer with the value's number alone.

Per the record, O=c1cc(-c2cccc3c2Sc2ccccc2S3)oc(N2CCOCC2)c1 + Cc1cc(Nc2cc(N3CCN(C)CC3)nc(Sc3ccc(NC(=O)C4CC4)cc3)n2)n[nH]1 [Tozasertib] (partner 0.1 µM) has relative viability of 0.617

Per the record, O=c1cc(-c2cccc3c2Sc2ccccc2S3)oc(N2CCOCC2)c1 + CCNC(=O)c1noc(-c2cc(C(C)C)c(O)cc2O)c1-c1ccc(CN2CCOCC2)cc1 [Luminespib] (partner 0.01 µM) has relative viability of 0.387

Per the record, O=c1cc(-c2cccc3c2Sc2ccccc2S3)oc(N2CCOCC2)c1 + O=C(c1cc(Cc2n[nH]c(=O)c3ccccc23)ccc1F)N1CCN(C(=O)C2CC2)CC1 [Olaparib] (partner 8 µM) has relative viability of 1.07

###

Test system: HCC-15
measurement-description: relative viability (nuclei count vs DMSO), 5 days (fraction); higher = more cells survive
run-conditions: first compound 20 µM
quantity-name: relative viability
Answer with the value's number alone.

Lab note: molecule COCC1(CO)C(=O)C2CCN1CC2 (stereo not drawn) [PRIMA-1MET] + C[C@@H](Oc1cc(-c2cnn(C3CCNCC3)c2)cnc1N)c1c(Cl)ccc(F)c1Cl [Crizotinib] (partner 1 µM) tested on HCC-15; recorded relative viability was 0.706

Lab note: molecule COCC1(CO)C(=O)C2CCN1CC2 (stereo not drawn) [PRIMA-1MET] + O=C(CCCCCCC(=O)Nc1ccccc1)NO [Vorinostat] (partner 1 µM) tested on HCC-15; recorded relative viability was 0.758

Lab note: molecule COCC1(CO)C(=O)C2CCN1CC2 (stereo not drawn) [PRIMA-1MET] + O=C(c1cc(Cc2n[nH]c(=O)c3ccccc23)ccc1F)N1CCN(C(=O)C2CC2)CC1 [Olaparib] (partner 8 µM) tested on HCC-15; recorded relative viability was 0.628
